System: HEK-293T
Assay: Multiplex assay against HEK293T
Type: toxicity, cell-based
Details: human, 24 h, 1 µM, compound concentration 1 uM, replicate 1
property: Population Membrane Permeable-Phenotype (%)

compound | units | readout-number
Cc1csc2c(N[C@@H](C)CN3CCN(S(=O)(=O)c4ccc(Cl)c(Cl)c4)CC3)ncnc12 | % | 4
OC1(c2ccc(Cl)cc2)CCN(Cc2c[nH]c3ccccc23)CC1 | % | 3
CN(C)CC#Cc1ccc(OCCCc2sc(N3CCc4cccc(C(=O)Nc5nc6ccccc6s5)c4C3)nc2C(=O)O)c(F)c1 [A-1155463] | % | 4
c1cn2cc(-c3ccc4cn[nH]c4c3)nc(Nc3ccc(N4CCOCC4)cc3)c2n1 [ENTOSPLETINIB] | % | 6
Cc1c(-c2ccc(O)cc2)n(Cc2ccc(OCCN3CCCCCC3)cc2)c2ccc(O)cc12 [BAZEDOXIFENE] | % | 5
